Provide the recorded log p for the entries that follow.
- Assay procedure: logP by LC-MS on reversed-phase columns (C 18), method [c], neutral range pH 7.8
- Format: physicochemical
- Condition description: pH 7.8

Query string: Form field: reported log p of CCCC(C)[S+]([O-])C(C)c1cccc(Nc2ncc(Cl)c(NC3CC3)n2)c1 (stereo not shown)
Result string: 3.1[c];

Query string: Form field: reported log p of COCCOC(c1cccc(Nc2ncc(C(F)(F)F)c(NCC3CC3)n2)c1)C(F)(F)F (stereo not shown)
Result string: 4.2[c]

Query string: Form field: reported log p of CCN(c1nc(Nc2cccc(COC)c2)ncc1Cl)C1CC1
Result string: 4.23[c];

Query string: Form field: reported log p of COCCOCCOc1ccc(Nc2ncc(C(F)(F)F)c(NC3CC3)n2)cc1C(F)(F)F
Result string: 3.79[c];

* * *

Provide the recorded chromatographic logP for the entries that follow.
- Assay procedure: logP by LC-MS on reversed-phase columns (C 18), method [b], acidic range pH 2.7
- Assay type: physicochemical
- Condition description: pH 2.7, log p
Give only the figure.

Query string: Form field: reported chromatographic logP of CCS(=O)(=O)c1cccc(Nc2ncc(C(F)(F)F)c(NC3CCC3)n2)c1 [Example 118]
Result string: 3.07

Query string: Form field: reported chromatographic logP of CCCCS(=O)(=O)c1cccc(Nc2ncc(C(F)(F)F)c(NC3CCC3)n2)c1 [Example 202]
Result string: 3.91

Query string: Form field: reported chromatographic logP of COCc1cccc(Nc2ncc(Cl)c(NCCC(C)C)n2)c1 [Example 146]
Result string: 2.37

Query string: Form field: reported chromatographic logP of CCSCc1cccc(Nc2ncc(Cl)c(NCC(F)(F)F)n2)c1 [Example 32]
Result string: 3.49

Query string: Form field: reported chromatographic logP of CCC(C)[S+]([O-])c1cccc(Nc2ncc(Cl)c(NC3CC3)n2)c1 (centres unmarked) [Example 175]
Result string: 2.12

Query string: Form field: reported chromatographic logP of CCCC[S+]([O-])c1cccc(Nc2ncc(Cl)c(NC3CCC3)n2)c1 (centres unmarked) [Example 171]
Result string: 2.48

Query string: Form field: reported chromatographic logP of CCS(=O)(=O)c1cccc(Nc2ncc(Cl)c(NC3CCC3)n2)c1 [Example 27]
Result string: 2.21

Query string: Form field: reported chromatographic logP of CCC(C)[S+]([O-])C(C)c1cccc(Nc2ncc(Cl)c(NC3CC3)n2)c1 (centres unmarked) [Example 164]
Result string: 2

Query string: Form field: reported chromatographic logP of COCc1cccc(Nc2ncc(Cl)c(NC(C)C)n2)c1 [Example 26]
Result string: 1.76

Query string: Form field: reported chromatographic logP of CNc1nc(Nc2cccc(COC)c2)ncc1Cl [Example 172]
Result string: 1.18

Query string: Form field: reported chromatographic logP of CCC[S+]([O-])c1cccc(Nc2ncc(Cl)c(NC3CC3)n2)c1 (centres unmarked) [Example 205]
Result string: 1.8

Query string: Form field: reported chromatographic logP of COCCOc1cccc(Nc2ncc(Cl)c(NC3CCC3)n2)c1 [Example 66]
Result string: 2.12

Query string: Form field: reported chromatographic logP of COCC(=O)c1cccc(Nc2ncc(C(F)(F)F)c(NC3CC3)n2)c1 [Example 225]
Result string: 2.54

Query string: Form field: reported chromatographic logP of CCSc1cccc(Nc2ncc(C(F)(F)F)c(NC3CCC3C)n2)c1 (centres unmarked) [Example 233]
Result string: 4.89

Query string: Form field: reported chromatographic logP of CC[S+]([O-])c1cccc(Nc2ncc(Br)c(NC3CCC3)n2)c1 (centres unmarked) [Example 112]
Result string: 1.88

Query string: Form field: reported chromatographic logP of CCCNc1nc(Nc2cccc(COC)c2)ncc1Cl [Example 149]
Result string: 1.72

Query string: Form field: reported chromatographic logP of CCSC(C)c1cccc(Nc2ncc(Br)c(NC3CCC3)n2)c1 (centres unmarked) [Example 12]
Result string: 3.49

Query string: Form field: reported chromatographic logP of FC(F)(F)OCCOc1cccc(Nc2ncc(Cl)c(NC3CC3)n2)c1 [Example 241]
Result string: 2.72

Query string: Form field: reported chromatographic logP of COCCOC(C)c1cccc(Nc2ncc(Cl)c(NC3CC3)n2)c1 (centres unmarked) [Example 243]
Result string: 2

Query string: Form field: reported chromatographic logP of CC[S+]([O-])C(C)c1cccc(Nc2ncc(C(F)(F)F)c(NC3CCC3)n2)c1 (centres unmarked) [Example 43]
Result string: 2.55

Query string: Form field: reported chromatographic logP of CCCSc1cccc(Nc2ncc(C(F)(F)F)c(NC3CCC3)n2)c1 [Example 155]
Result string: 5.01

Query string: Form field: reported chromatographic logP of CC[S+]([O-])c1cccc(Nc2ncc(C(F)(F)F)c(NC3CCC3C)n2)c1 (centres unmarked) [Example 244]
Result string: 2.9

Query string: Form field: reported chromatographic logP of CCC(c1cccc(Nc2ncc(Cl)c(NC3CC3)n2)c1)S(=O)(=O)CC (centres unmarked) [Example 120]
Result string: 1.94

Query string: Form field: reported chromatographic logP of CCCCSc1cccc(Nc2ncc(Cl)c(NC3CCC3)n2)c1 [Example 106]
Result string: 4.28

Query string: Form field: reported chromatographic logP of CCOCCOCc1cccc(Nc2ncc(C(F)(F)F)c(NC3CC3)n2)c1 [Example 250]
Result string: 3.17

Query string: Form field: reported chromatographic logP of COCCOc1ccc(Nc2ncc(Cl)c(NC3CC3)n2)cc1C [Example 174]
Result string: 1.43

Query string: Form field: reported chromatographic logP of CCCC[S+]([O-])c1cccc(Nc2ncc(Br)c(NC3CC3)n2)c1 (centres unmarked) [Example 126]
Result string: 2.28

Query string: Form field: reported chromatographic logP of CCN(c1nc(Nc2cccc(COC)c2)ncc1Cl)C(C)C [Example 140]
Result string: 3

Query string: Form field: reported chromatographic logP of CCOCCOc1cc(Nc2ncc(C(F)(F)F)c(NC3CC3)n2)ccc1C [Example 79]
Result string: 3.66

Query string: Form field: reported chromatographic logP of CCC(C)Sc1cccc(Nc2ncc(Cl)c(NC3CCC3)n2)c1 (centres unmarked) [Example 6]
Result string: 4.14

Query string: Form field: reported chromatographic logP of CCC[S+]([O-])c1cccc(Nc2ncc(C(F)(F)F)c(NC3CCC3)n2)c1 (centres unmarked) [Example 35]
Result string: 2.97

Query string: Form field: reported chromatographic logP of CCCCS(=O)(=O)c1cccc(Nc2ncc(Br)c(NC3CC3)n2)c1 [Example 125]
Result string: 2.81

Query string: Form field: reported chromatographic logP of COCCCOC(C)c1cccc(Nc2ncc(Cl)c(NC3CC3)n2)c1 (centres unmarked) [Example 256]
Result string: 2.2

Query string: Form field: reported chromatographic logP of CSC(C)c1cccc(Nc2ncc(Cl)c(NC3CCC3)n2)c1 (centres unmarked) [Example 14]
Result string: 2.82

Query string: Form field: reported chromatographic logP of COCc1cccc(Nc2ncc(Cl)c(NCCF)n2)c1 [Example 138]
Result string: 1.48

Query string: Form field: reported chromatographic logP of CCCSc1cccc(Nc2ncc(C(F)(F)F)c(NC3CC3C)n2)c1 (centres unmarked) [Example 235]
Result string: 4.9

Query string: Form field: reported chromatographic logP of CCC(C)S(=O)(=O)C(C)c1cccc(Nc2ncc(C(F)(F)F)c(NC3CC3)n2)c1 (centres unmarked) [Example 187]
Result string: 3.14

Query string: Form field: reported chromatographic logP of CSC(C)c1cccc(Nc2ncc(Br)c(NC3CCC3)n2)c1 (centres unmarked) [Example 13]
Result string: 3.07

Cited source for all entries: patent US20110245284A1
